- studySystem: pooled human IgG (human IgG1, 2, 3 and 4)
Measured Enzyme Activity Endpoint Assay: Fab′2, listed per entry.
metric: Enzyme Activity Endpoint Assay: Fab′2 (ng/µL)

>>> measuredvalue("PRT-269 (protein) MVTSVWTKGVTPPTDFIYGEDVLHAPYKAGQGWYDITKTFNGKDDLLCGAATAGNMLHWWFDQNKEQIENYLKKHPEKQKINFNGEQMFDVKEAIDTKDSQLDSKLFEYFLEKAFPNLSTKHLGVFPDHVIDMFINGYRLSLLNHGPTPVKRGSKDPRGGIFDAVFTRGDQSKLLTNRHDLKNKTLKEISDLIKQELTEGKALGISHTYANVRINHVINLWGADFDAEGNLEAIAVTDSDSNASIGMKKYFVGVNSSGKVAISAKEIEEDNIGAQVLGLFTLSTGQDIWNQTN")
98
>>> measuredvalue("PRT-375 (protein) MSQTEDSESLQRLRDIEDFQAEKKKQNVVYTKWLDGVDVKDHDFRKIVDGNEAYYATPLLNGRGFYDINKDFNRDNDKCAAAVAANMFHYWLDRNRDNVDRFLRQNPEKHGIIELPDGQLKLSDFLNTYESDDGYRDKSKLFDFISENFNGPVWTDKLLDNYINGYAYNYKYGRLIEDSTKNTSKINFFKEVFNEKILTNNHSIRNQNELSVLLSEALYTGKAIGLSYGPAGTRHSLGHIISVWGADLDADGNVVAIYVTDSDDKKLTIGDERVGLKRYKISTDDEGRLRLTAYEETHNTGGQIRGLWTLDTGKQAWADYFDKTEQTGTDQAEQ")
170
>>> measuredvalue("PRT-439 (protein) MSQTEDSESLQRLRDIEDFQAEKKKQNVVYTKWLDGVDVKDHDFRKIVDGNIAYYATPLLNGRGFYDINKDFNRDSDKCAAAVAANMFHYWLDRNRDNVDRFLRQNPEKHGIIELPDGQLKLSDFLNTYESDDGYRDKSKLFDFISNNFNGPVWTDKLLDNYINGYAYNYKYGRLIEDPTKNTSKINFFKEVFNEKILTNNHSIRNQNEFSVLLSEALYTGKAIGLSYGPAGLRHSLGHIISVWGADLDADGNVVAIYVTDSDDKKLTIGDERVGLKRYKISTDDEGRLRLTAYEETHNTGGQIRGLWTLDTGKQAWADYFDKTEQTGTDQAEQ")
179
>>> measuredvalue("PRT-415 (protein) MTITSVWTKGVTPPTPEDFRYNNEDVLHAPYVANQGWYDITKTFDGKDNLLCGAATAGNMLHWWFDQNKEEIERYLKKHPEKQKIIFNNQELFDVKAAIDTKDSQTNSKLFNYFLDKAFPNLSARQLGVMPDLVLDMFINGYYLNLGKTQSTDVNRPYQDKDKRGGIFDAVFTRGDQTTLLTARHDLKNKGLNEISDLIKQELTEGKALALSHTYANVRINHVINLWGADFDAEGNLIAIYVTDSDANASIGMKKYFVGVNANGKVAISAKKIEGDNIGAQVLGLFTLSTGQDIWQKLS")
46
